molecular target: KiSS-1 receptor (Homo sapiens); test: Human kisspeptin (KISS1R) small molecule agonists, calcium flux assay in KISS1R-HEK293 cells (AID 1920064); details: KISS1R-HEK293, calcium flux fluorescence, agonist; series mostly up to 76.8 µM; note: % is set by controls: 0 for no effect and ±100 for the full control effect
Activity calls are given as the source filed them. Calls come from the whole dose curve; as a rule, active = well fitted activation curve with a large enough effect in the repeat runs; inconclusive = weak or mixed curves; inactive = flat fitted curve, though single readings scatter.
OUTCOME MEASURE: activation

1) COC(=O)c1ccccc1OC : inactive
2) CCCC1CCC(=O)CC1 : inactive
3) O=S(=O)(O)c1cc(I)c(O)c2ncccc12 : inactive
4) CCCCc1oc2ccc(NS(C)(=O)=O)cc2c1C(=O)c1ccc(OCCCN(CCCC)CCCC)cc1 : inactive
5) O=S(=O)(O)c1cc(Cl)c(Cl)cc1Cl : inactive
6) COC(=O)/C=C/C(C)=C\C=C\C(C)=C\C=C\C=C(C)\C=C\C=C(C)\C=C\C(=O)O : inactive
7) CCOc1cccc(-n2cc(C(=O)N3CCN(c4cc(C(=O)O)c5ccccc5c4)CC3)nc2-c2ccc(C)cc2)c1 : inactive
8) CC(C)NC[C@@H](O)COc1ccc(CC(N)=O)cc1 : inactive
9) CCCCC/C(=C\c1ccccc1)CO : inactive
10) CCNC(=O)/C=C/c1cccc(Br)c1 : inactive
11) CN1CCC(OC(c2ccccc2)c2ccccc2)CC1 : inactive
12) Clc1ccc2nsnc2c1NC1=NCCN1 : inactive
13) CCOC(=O)CC(O)(CC(=O)OCC)C(=O)OCC : inactive
14) CNC(=S)NC : inactive
15) OCCCCCO : inactive
16) CC1=C(C(=O)O)N2C(=O)[C@@H](NC(=O)[C@H](N)C3=CCC=CC3)[C@H]2SC1 : inactive
17) Cc1ccccc1Br : inactive
18) C=C1CC[C@H]2C[C@@H]1C2(C)C : inactive
19) O=c1[nH][nH]c2ccccc12 : inactive
20) CC(C)COC(=O)CC(C(=O)OCC(C)C)S(=O)(=O)O (configuration not stated) : inactive
21) O=CN(CCO)CCO : inactive
22) CC1(COc2ccc(CC3SC(=O)NC3=O)cc2)CCCCC1 (configuration not stated) : inactive
23) CNc1ccc([N+](=O)[O-])cc1 : inactive
24) Cc1cc2c(C(C)C)c(O)c(O)c(C=O)c2c(O)c1-c1c(C)cc2c(C(C)C)c(O)c(O)c(C=O)c2c1O : inactive
25) COc1ccc(Cc2cnc(N)nc2N)cc1OC : inactive
26) O=C1c2ccccc2C(=O)c2c(O)ccc(O)c21 : inactive
27) CC(=O)Oc1ccc(C(=C2CCCCC2)c2ccc(OC(C)=O)cc2)cc1 : inactive
28) CC/C=C/CCCCCCCCCCOC(C)=O : inactive
29) COc1cc(Cc2cnc(N)nc2N)cc(OC)c1OC : inactive
30) CCCCCCOC(=O)NC(=N)c1ccc(NCc2nc3cc(C(=O)N(CCC(=O)OCC)c4ccccn4)ccc3n2C)cc1 : inactive
31) CCCCCCCCCCCCCCCCCCCl : 6.45% [at 6.97 µM] (inactive)
32) CCN(CC)CC : inactive
33) CCOC(=O)c1ccc(C#Cc2ccc3c(c2)C(C)(C)CCS3)nc1 : inactive
34) O=C(CS)OCCOC(=O)CS : inactive
35) C=CC[N+]1([C@H]2C[C@H]3[C@@H]4CC[C@H]5C[C@H](OC(C)=O)[C@@H](N6CCCCC6)C[C@]5(C)[C@H]4CC[C@]3(C)[C@H]2OC(=O)CC)CCCCC1 : inactive
36) CCCCCCCCCCCCCCCCCC[N+](C)(C)Cc1ccccc1 : inactive
37) CC(C)(C)C(=O)c1ccccc1 : inactive
38) CCCNC(C)(C)COC(=O)c1ccccc1 : inactive
39) NC(=O)c1c(Cl)cccc1Cl : inactive
40) CC1(C)O[C@@H]2C[C@H]3[C@@H]4C[C@H](F)C5=CC(=O)C=C[C@]5(C)[C@H]4[C@@H](O)C[C@]3(C)[C@]2(C(=O)CO)O1 : inactive
41) CCCCN(CCCC)C(=S)SSC(=S)N(CCCC)CCCC : inactive
42) CC(=O)OCC(C)OC(C)=O (configuration not stated) : inactive
43) CCCCOc1ccc(CC(=O)NO)cc1 : inactive
44) C1CCC2(CCCCO2)OC1 : inactive
45) Nc1cc(Cl)cc(S(=O)(=O)O)c1O : inactive
46) Cc1c(N)c(=O)n(-c2ccccc2)n1C : inactive
47) CCCC1CCOC(C)S1 (configuration not stated) : inactive
48) CCCCCSCCCCC : inactive
49) c1ccc2c(c1)CCCC2C1=NCCN1 (configuration not stated) : inactive
50) N#C/C(=C1/SC[C@@H](c2ccc(Cl)cc2Cl)S1)n1ccnc1 : inactive
51) c1ccc2sc(SSc3nc4ccccc4s3)nc2c1 : 4.25% [at 15.8 µM] (inactive)
52) C[C@H](CS)C(=O)N1CCC[C@H]1C(=O)O : inactive

----------
target: Muscarinic acetylcholine receptor M1 (Homo sapiens) (UniProt P11229); assay: Cholinergic receptor muscarinic 1 (CHRM1) small molecule antagonists, cell-based qHTS assay (AID 1963588); conditions: CHRM1-CHO antagonist mode, calcium flux fluorescence; series mostly up to 61.5 µM; note: nearly all actives have a fitted effect of over 40% in size
Sequence (P11229 whole entry, looked up): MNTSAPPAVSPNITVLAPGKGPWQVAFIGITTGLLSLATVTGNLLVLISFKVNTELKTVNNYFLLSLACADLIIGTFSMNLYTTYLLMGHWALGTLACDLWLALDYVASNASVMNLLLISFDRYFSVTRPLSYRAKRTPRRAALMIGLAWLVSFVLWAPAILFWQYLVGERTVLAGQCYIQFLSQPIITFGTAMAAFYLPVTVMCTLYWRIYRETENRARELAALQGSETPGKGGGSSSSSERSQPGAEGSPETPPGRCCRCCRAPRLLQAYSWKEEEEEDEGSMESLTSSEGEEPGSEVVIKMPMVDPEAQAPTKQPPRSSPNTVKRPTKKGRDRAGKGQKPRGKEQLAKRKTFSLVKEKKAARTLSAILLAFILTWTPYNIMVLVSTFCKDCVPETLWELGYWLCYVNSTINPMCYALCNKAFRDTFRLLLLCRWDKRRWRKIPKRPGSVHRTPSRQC
Results filed as inconclusive are left out. Activity calls are given as the source filed them. The call rests on the fitted dose curve.
Outcomes: active, inactive

1. C1CCC2=NCCCN2CC1 : inactive
2. Cc1cccc(OCCOc2cccc(C)c2)c1 : inactive
3. CC1=C(C=O)C(C)(C)CCC1 : inactive
4. CCOc1ccc(O)cc1 : inactive
5. COc1cc(C(=O)OCCCN2CCCN(CCCOC(=O)c3cc(OC)c(OC)c(OC)c3)CC2)cc(OC)c1OC : active
6. O=S(=O)(O)c1cc(O)c2ccc(Nc3ccccc3)cc2c1 : inactive
7. CCC1Nc2cc(Cl)c(S(N)(=O)=O)cc2S(=O)(=O)N1 (stereo not drawn) : inactive
8. O=C(O)CCCl : inactive
9. Cc1[nH]cnc1C[C@H]1CCc2c(C)c3ccccc3n2C1=O : active
10. O=C1Cc2ccccc2N1c1c(Cl)cccc1Cl : inactive
11. C=CC(C)(CCC=C(C)C)OC(=O)/C=C/c1ccccc1 (stereo not drawn) : inactive
12. CCCCCCCCCCCCCCC[C@H](O)[C@@H](N)CO : inactive
13. Oc1cc(Cl)cc(Cl)c1Cl : inactive

----------
target: Muscarinic acetylcholine receptor M1 (Homo sapiens) (UniProt P11229); assay: Cholinergic receptor muscarinic 1 (CHRM1) small molecule agonists, cell-based qHTS assay (AID 1963589); details: CHRM1-CHO cells, agonist mode, calcium flux fluorescence; series mostly up to 76.8 µM; note: % is set by controls: 0 for no effect and ±100 for the full control effect; nearly all actives have a fitted effect of over 35% in size
The source made the active and inactive calls. Calls follow the shape of the full dose curve.
OUTCOME MEASURE: activation

1. CCC(C)Nc1ccc(NC(C)CC)cc1 (stereo not drawn) : inactive
2. O=C(C(=O)c1ccc(Br)cc1)c1ccc(Br)cc1 : -0.452% [at 15.8 µM] (inactive)
3. CC(C)CCOC(=O)/C=C/c1ccccc1 : inactive
4. CCCCCCCCn1sc(Cl)c(Cl)c1=O : inactive
5. CCCC(=O)O[C@]1(C(=O)COC(=O)CC)CC[C@H]2[C@@H]3CCC4=CC(=O)CC[C@]4(C)[C@H]3[C@@H](O)C[C@@]21C : 5.7% [at 15.8 µM] (inactive)
6. O=C(O)c1ccc(-n2nc(-c3ccccc3O)nc2-c2ccccc2O)cc1 : inactive
7. CC(CO)(CO)CO : inactive
8. COC(=O)c1ccc(C(=O)O)cc1 : inactive
9. O=C(Nc1ccccc1)c1cc(Cl)ccc1O : inactive
10. O=[N+]([O-])c1ccc(O)cc1 : inactive
11. Nc1ccc(C(=O)Nc2ccccc2N)cc1 : inactive
12. NNc1nc(-c2ccc(N)cc2)cs1 : inactive
13. CCC(C)c1cc(C(C)(C)C)c(O)c(C(C)(C)C)c1 (stereo not drawn) : inactive

----------
test: p53 small molecule agonists, cell-based qHTS assay: qHTS cell viability counter screen (AID 1963581); details: p53RE-bla HCT-116 viability, ATP luminescence, 16 h; series mostly up to 66 µM; note: potency is the fitted concentration of half-maximal effect; nearly all actives have a fitted effect of over 45% in size
Results filed as inconclusive are left out. The source made the active and inactive calls. Calls come from the whole dose curve.
The compounds listed here are annotated with their Potency.
OUTCOME MEASURE: Potency

1) CCN=C1C=CC(=C(c2ccc(N(CC)CC)cc2)c2ccc(N(CC)CC)cc2)c2ccccc21 : 36.1 µM (active)
2) CCc1c(C(=O)NN2CCCCC2)nn(-c2ccc(Cl)cc2Cl)c1-c1ccc(Br)cc1 : 36.3 µM (active)
3) CCCCN(CCCC)c1ccc(C(=O)c2ccccc2C(=O)O)c(O)c1 : 20.6 µM (active)
4) COc1cc(C=C2CCC/C(=C\c3ccc(O)c(OC)c3)C2=O)ccc1O : 14.1 µM (active)
5) C=C[C@](C)(O)CC[C@@H]1[C@@]2(C)CCCC(C)(C)[C@@H]2CC[C@@]1(C)O : 9.13 µM (active)
6) CC(C)(C)CC(C)(C)c1ccc(O)c(Cc2ccc(Cl)cc2Cl)c1 : 8.9 µM (active)
7) CCCCC(CC)CN=C(N)NC(N)=NCCCCCCN=C(N)NC(N)=NCC(CC)CCCC (stereo not given) : 19.9 µM (active)
8) O=C(Nc1ccccc1)c1cc(Cl)ccc1O : 40.8 µM (active)
9) NC(N)=NN=C(/C=C/c1ccc([N+](=O)[O-])o1)/C=C/c1ccc([N+](=O)[O-])o1 : 17.8 µM (active)
10) O=[N+]([O-])c1cc(C2CCCCC2)c(O)c([N+](=O)[O-])c1 : 20.4 µM (active)

These data points were gathered from PubChem BioAssay (Tox21).
